Entry source: BindingDB's records for PubMed 9686407

target: 5-hydroxytryptamine receptor 3A (Mus musculus, UniProt P23979)
Sequence (P23979 as listed by the source): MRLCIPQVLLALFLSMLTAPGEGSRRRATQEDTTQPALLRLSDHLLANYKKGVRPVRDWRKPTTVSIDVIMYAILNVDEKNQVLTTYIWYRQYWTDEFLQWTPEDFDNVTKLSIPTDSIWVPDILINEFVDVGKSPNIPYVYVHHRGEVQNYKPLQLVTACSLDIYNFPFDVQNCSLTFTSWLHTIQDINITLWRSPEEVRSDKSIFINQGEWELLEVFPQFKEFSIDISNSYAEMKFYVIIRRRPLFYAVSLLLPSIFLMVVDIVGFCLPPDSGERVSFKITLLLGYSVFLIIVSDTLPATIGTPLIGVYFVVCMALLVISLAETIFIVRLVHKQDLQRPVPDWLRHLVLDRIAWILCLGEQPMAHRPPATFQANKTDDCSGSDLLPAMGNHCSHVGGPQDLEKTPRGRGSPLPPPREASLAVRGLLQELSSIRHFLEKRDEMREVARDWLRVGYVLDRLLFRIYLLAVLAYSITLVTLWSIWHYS
ASSAY_METRIC: Ki

# example entries with known answers
1. OCCN1CCN(CC/C=C2/c3ccccc3Sc3ccc(C(F)(F)F)cc32)CC1	> 10 µM
2. Cc1[nH]c2ccc(O)cc2c1CCN	0.995 µM
3. COC(=O)[C@H]1[C@H]2C[C@@H]3c4[nH]c5cc(OC)ccc5c4CCN3C[C@H]2C[C@@H](OC(=O)c2cc(OC)c(OC)c(OC)c2)[C@@H]1OC	> 10 µM

Recorded Ki (molecule "O=C(CCCN1CCC2(CC1)C(=O)NCN2c1ccccc1)c1ccc(F)cc1" ): > 10 µM

Query CN1C2CCC1CC(OC(=O)c1cc(Cl)cc(Cl)c1)C2 (configuration not stated) yields Ki of 0.014 µM

The recorded Ki for entry "CNCCCN1c2ccccc2CCc2ccccc21" equals 4.4 µM

CC(N)Cc1ccc2c(c1)OCO2 (configuration not stated) has a reported Ki of > 10 µM

The molecule listed as "O=c1[nH]c2ccccc2n1C1CCN(CCCC(c2ccc(F)cc2)c2ccc(F)cc2)CC1" has a reported Ki of 3.29 µM

Notebook: "CN1CCN(c2nc3cc(C(F)(F)F)ccc3n3cccc23)CC1" , Ki read as > 10 µM

Measured Ki of CCCN1CCCC(c2cccc(O)c2)C1 (configuration not stated) : > 10 µM

// field: Ki; key: "CN1CCc2cccc3c2[C@H]1Cc1ccc(O)c(O)c1-3" ; value = > 10 µM

Sample CN1CCc2cc(Cl)c(O)cc2[C@@H](c2ccccc2)C1 [SCH 23390,R(+)] ; Ki observed: 3.91 µM

###

target: UniProtKB P41144
Sequence (P41144 whole entry): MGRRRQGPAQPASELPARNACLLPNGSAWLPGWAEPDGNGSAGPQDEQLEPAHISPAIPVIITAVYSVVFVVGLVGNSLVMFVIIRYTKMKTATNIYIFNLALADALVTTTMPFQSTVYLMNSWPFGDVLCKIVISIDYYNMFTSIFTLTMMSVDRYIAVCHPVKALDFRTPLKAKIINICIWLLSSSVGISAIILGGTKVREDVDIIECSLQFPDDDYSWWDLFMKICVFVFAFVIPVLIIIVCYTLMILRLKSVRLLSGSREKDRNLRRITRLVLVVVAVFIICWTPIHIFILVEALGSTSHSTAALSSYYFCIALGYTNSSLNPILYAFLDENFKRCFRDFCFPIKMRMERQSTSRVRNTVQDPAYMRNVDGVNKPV
ASSAY_METRIC: pKi
FYI, pKi means -log10 of a concentration in mol per litre.

1. C[C@@H](NC(=O)[C@@H](N)Cc1ccc(O)cc1)C(=O)NCC(=O)N(C)[C@@H](Cc1ccccc1)C(=O)NCCO	5.73
2. Oc1ccc2c3c1OC1c4[nH]c5ccccc5c4CC4(O)[C@H](C2)N(CC2CC2)CCC314 (stereo not given in full)	8.11
3. C=CCN1CC[C@]23c4c5ccc(O)c4O[C@H]2[C@@H](O)C=CC3[C@H]1C5 (stereo not given in full)	8.77

Next:
Reported pKi ( "C[C@@H]1[C@@H]2Cc3ccc(O)cc3[C@@]1(C)CCN2CC1CC1" ) = 10.00

###

Biological target: 5-hydroxytryptamine receptor 1A (Homo sapiens)
Sequence (P08908 whole entry): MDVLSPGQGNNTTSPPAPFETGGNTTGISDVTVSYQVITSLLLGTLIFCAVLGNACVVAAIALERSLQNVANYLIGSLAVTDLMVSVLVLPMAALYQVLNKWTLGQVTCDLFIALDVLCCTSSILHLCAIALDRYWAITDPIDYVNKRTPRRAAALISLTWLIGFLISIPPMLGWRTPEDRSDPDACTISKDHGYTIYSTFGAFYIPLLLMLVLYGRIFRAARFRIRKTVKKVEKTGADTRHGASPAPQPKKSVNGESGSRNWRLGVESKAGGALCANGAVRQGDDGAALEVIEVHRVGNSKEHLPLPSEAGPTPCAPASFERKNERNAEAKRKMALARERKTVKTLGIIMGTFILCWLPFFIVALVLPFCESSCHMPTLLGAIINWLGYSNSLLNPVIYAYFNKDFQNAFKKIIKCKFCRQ
Ki values for the compounds below.
Answer in µM, number only, no unit symbol.

Example entries begin here.
1) COC(=O)[C@H]1[C@H]2C[C@@H]3c4[nH]c5cc(OC)ccc5c4CCN3C[C@H]2C[C@@H](OC(=O)c2cc(OC)c(OC)c(OC)c2)[C@@H]1OC	1.83
2) C[C@H](N)Cc1ccccc1	6.61
3) CC(C)C[C@H]1C(=O)N2CCC[C@H]2[C@]2(O)O[C@](NC(=O)[C@@H]3C=C4c5cccc6[nH]c(Br)c(c56)C[C@H]4N(C)C3)(C(C)C)C(=O)N12	0.025

Next, consider the following compound.
// Ki lookup, compound = "CCc1cc(Cl)c(OC)c(C(=O)NC[C@@H]2CCCN2CC)c1O" , result: 1.79

###

target: 5-hydroxytryptamine receptor 5A (Rattus norvegicus)
Sequence (P35364 whole entry): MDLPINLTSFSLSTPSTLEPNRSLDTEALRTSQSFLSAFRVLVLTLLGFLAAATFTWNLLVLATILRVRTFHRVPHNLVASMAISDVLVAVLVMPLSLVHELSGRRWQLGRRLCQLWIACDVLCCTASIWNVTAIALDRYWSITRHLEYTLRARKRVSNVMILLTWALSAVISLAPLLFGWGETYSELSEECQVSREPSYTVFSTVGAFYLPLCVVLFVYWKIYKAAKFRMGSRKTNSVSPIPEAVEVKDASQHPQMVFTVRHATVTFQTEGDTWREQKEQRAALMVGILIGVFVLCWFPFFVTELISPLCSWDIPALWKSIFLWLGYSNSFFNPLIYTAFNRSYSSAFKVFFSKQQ
ASSAY_METRIC: Ki

The molecule NCC(O)c1ccc(O)c(O)c1 (stereo not drawn) [Noradrenaline,(+)] on 5-hydroxytryptamine receptor 5A (Rattus norvegicus): Ki was > 10 µM

###

Target: UniProtKB P08908
Sequence (P08908 whole entry): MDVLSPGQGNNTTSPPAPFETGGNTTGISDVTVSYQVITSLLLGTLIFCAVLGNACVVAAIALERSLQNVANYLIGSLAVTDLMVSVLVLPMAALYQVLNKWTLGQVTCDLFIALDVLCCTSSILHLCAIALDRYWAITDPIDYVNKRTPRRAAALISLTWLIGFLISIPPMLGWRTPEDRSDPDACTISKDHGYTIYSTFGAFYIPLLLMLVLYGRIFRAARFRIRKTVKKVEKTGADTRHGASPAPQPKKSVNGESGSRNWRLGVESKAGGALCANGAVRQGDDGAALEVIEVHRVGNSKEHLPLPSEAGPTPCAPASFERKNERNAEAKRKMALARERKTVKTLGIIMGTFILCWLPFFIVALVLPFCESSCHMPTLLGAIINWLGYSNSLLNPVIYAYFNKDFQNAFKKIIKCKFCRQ
Overview of recorded pKi for various molecules
In plain terms, pKi is the concentration in mol/L turned into minus its base-10 logarithm.

1) Oc1cc2c(c(Cl)c1O)CCNC[C@@H]2c1ccccc1	5.26
2) CN1CC(C(=O)N[C@]2(C)O[C@@]3(O)C4CCCN4C(=O)[C@H](Cc4ccccc4)N3C2=O)CC2c3cccc4[nH]cc(c34)CC21 (stereo not given in full)	8.82
3) OCCN1CCN(CC/C=C2/c3ccccc3Sc3ccc(C(F)(F)F)cc32)CC1	5.10
4) CC(C)(C)[C@]1(O)CCN2C[C@H]3c4ccccc4CCc4cccc(c43)[C@@H]2C1	6.28

Item: "CN1CCN(c2nc3cc(C(F)(F)F)ccc3n3cccc23)CC1" | pKi: 7.36

The reported value for "CCCN1CCC[C@@H]2Cc3n[nH]cc3C[C@H]21" in terms of pKi is 5.77

Entry c1ccc2c(c1)OCC(C1=NCCN1)O2 (stereo not given) — recorded pKi = 6.18

Reported pKi for "NCCc1ccc(O)c(O)c1" was 5.08

###

target: 5-hydroxytryptamine receptor 2A (Rattus norvegicus, UniProt P14842)
Sequence (P14842 whole entry): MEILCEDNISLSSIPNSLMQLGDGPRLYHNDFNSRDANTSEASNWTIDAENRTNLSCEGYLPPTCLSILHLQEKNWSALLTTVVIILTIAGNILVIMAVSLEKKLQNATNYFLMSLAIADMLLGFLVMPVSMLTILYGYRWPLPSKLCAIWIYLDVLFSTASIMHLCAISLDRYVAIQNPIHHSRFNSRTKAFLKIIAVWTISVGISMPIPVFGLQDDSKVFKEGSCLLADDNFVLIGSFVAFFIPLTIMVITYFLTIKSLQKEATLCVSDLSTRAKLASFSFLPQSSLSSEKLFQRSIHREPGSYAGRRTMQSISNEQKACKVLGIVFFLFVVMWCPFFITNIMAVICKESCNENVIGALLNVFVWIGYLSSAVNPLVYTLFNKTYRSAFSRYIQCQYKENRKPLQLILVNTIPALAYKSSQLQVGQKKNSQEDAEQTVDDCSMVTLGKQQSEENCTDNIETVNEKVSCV
ASSAY_METRIC: Ki (µM)
Kindly answer with a numeric value in µM, unit omitted.

1. C#CCN(C)[C@H](C)Cc1ccccc1 [US8633208, Deprenyl]	5.64
2. CN1CCc2cc(Cl)c(O)cc2[C@@H](c2ccccc2)C1 [SCH 23390,R(+)]	0.0122
3. O=c1[nH]c2ccccc2n1C1CCN(CCCC(c2ccc(F)cc2)c2ccc(F)cc2)CC1	0.049
4. COC(=O)[C@H]1[C@H]2C[C@@H]3c4[nH]c5cc(OC)ccc5c4CCN3C[C@H]2C[C@@H](OC(=O)c2cc(OC)c(OC)c(OC)c2)[C@@H]1OC [Apoplon]	3.06
5. CCc1cc(Cl)c(OC)c(C(=O)NC[C@@H]2CCCN2CC)c1O	0.705

Entry CN1CC(C(=O)N[C@]2(C)O[C@@]3(O)C4CCCN4C(=O)[C@H](Cc4ccccc4)N3C2=O)CC2c3cccc4[nH]cc(c34)CC21 (stereo partly specified) , tested on 5-hydroxytryptamine receptor 2A (Rattus norvegicus, UniProt P14842), has a reported Ki of 0.038

Entry Fc1ccc(C(OCCN2CCN(CCCc3ccccc3)CC2)c2ccc(F)cc2)cc1 [Vanoxerine] : Ki on 5-hydroxytryptamine receptor 2A (Rattus norvegicus, UniProt P14842) = 0.161

The value of Ki recorded for "Oc1cc2c(cc1O)[C@@H](c1ccccc1)CNCC2" when tested on 5-hydroxytryptamine receptor 2A (Rattus norvegicus, UniProt P14842) reads 6.16

The compound CN1C2CCC1CC(OC(=O)c1c[nH]c3ccccc13)C2 (stereo unspecified) on 5-hydroxytryptamine receptor 2A (Rattus norvegicus, UniProt P14842): Ki was 5.61

# Ki measured on 5-hydroxytryptamine receptor 2A (Rattus norvegicus, UniProt P14842) for item C=CCN1CCc2c(cc(O)c(O)c2Cl)C(c2ccccc2)C1 (racemic) [SKF 82958] = 1.29

Bench note, 5-hydroxytryptamine receptor 2A (Rattus norvegicus, UniProt P14842): entry CN1CCc2cccc3c2[C@H]1Cc1ccc(O)c(O)c1-3 [APOKYN] , its Ki = 4.38

Tested on 5-hydroxytryptamine receptor 2A (Rattus norvegicus, UniProt P14842): CN1CCN(c2nc3cc(C(F)(F)F)ccc3n3cccc23)CC1 [CAS_109028-10-6] . Observed Ki: 3.13

Simply: C=CCN1CCc2cc(O)c(O)cc2C(c2ccccc2)C1 (stereo unspecified) , 5-hydroxytryptamine receptor 2A (Rattus norvegicus, UniProt P14842), Ki = 2.7

Summary line: "Oc1cc2c(c(Cl)c1O)CCNC[C@@H]2c1ccccc1" , 5-hydroxytryptamine receptor 2A (Rattus norvegicus, UniProt P14842), reported Ki = 3.08

Item: Cc1ccc(N(CC2=NCCN2)c2cccc(O)c2)cc1 [SMR000059054] | System: 5-hydroxytryptamine receptor 2A (Rattus norvegicus, UniProt P14842) | Ki: 0.222
